# System: HEK-293T
# Protocol Summary: Multiplex assay against HEK293T
# Assay type: toxicity, cell-based
# Setup Conditions: human, 48 h, 10 µM, compound concentration 10 uM, replicate 2
Measure Name: Population Hoechst High Intensity Objects (%)
I only need the number, in %, no unit after it.

# example entries with known answers
CNC(=O)Nc1ccc(-c2nc(N3CC4CCC(C3)O4)c3cnn(C4CCC5(CC4)OCCO5)c3n2)cc1 : 8
O=c1cc(N2CCOCC2)oc2c(-c3cccc4c3sc3ccccc34)cccc12 : 8
CCc1ccc(OCc2ccccc2C(=O)Nc2ccc3nc(C)cc(N)c3c2)cc1.Cl : 40

Input: So what does the record say about Population Hoechst High Intensity Objects (%) for CCCSc1nc(N[C@@H]2C[C@H]2c2ccc(F)c(F)c2)c2nnn([C@@H]3C[C@H](OCCO)[C@@H](O)[C@H]3O)c2n1 ?
Output: 5

Input: So what does the record say about Population Hoechst High Intensity Objects (%) for CC(C)(C)NC[C@H](O)COc1nsnc1N1CCOCC1 ?
Output: 2

Input: So what does the record say about Population Hoechst High Intensity Objects (%) for CN1CCN(Cc2ccc(Nc3ncc(Cl)c(Nc4ccccc4S(=O)(=O)N(C)C)n3)cc2)CC1 ?
Output: 6

Input: So what does the record say about Population Hoechst High Intensity Objects (%) for COC(=O)C1=C(C)NC(C)=C(C(=O)OCCCN2CCC(c3ccccc3)(c3ccccc3)CC2)[C@H]1c1cccc([N+](=O)[O-])c1 ?
Output: 5

Input: So what does the record say about Population Hoechst High Intensity Objects (%) for COc1cc(Nc2nccc(-c3cnn4nc(OC)ccc34)n2)cc(C(F)(F)F)c1 ?
Output: 9
